The following molecules are listed with their measured Sub-G1 % values.
- Tested on: MCF-7 cells
- assay method text: Cell cycle analysis by flow cytometry (propidium iodide)
- Assay type: cell-based, human
- condition info: 25 μM, 48 h, mean ± S.E.M.
measurement kind: Sub-G1 % (%)

COc1ccc2c(c1OC)C(=O)O[C@@H]2[C@H]1c2c(c(Br)c3c(c2OC)OCO3)CCN1C :: 35.1
COc1ccc2c(c1OC)C(=O)O[C@@H]2[C@H]1c2c(c(I)c3c(c2OC)OCO3)CCN1C :: 28.1
COc1ccc2c(c1OC)C(=O)O[C@@H]2[C@H]1c2c(c(F)c3c(c2OC)OCO3)CCN1C :: 34.5
COc1ccc2c(c1OC)C(=O)O[C@@H]2[C@H]1c2c(c(Cl)c3c(c2OC)OCO3)CCN1C :: 37.8
COc1ccc2c(c1OC)C(=O)O[C@@H]2[C@H]1c2c(cc3c(c2OC)OCO3)CCN1C [Nos, reference compound] :: 36.8
